The measurements presented in this section are drawn from patent US20110028447A1.

Quick reference for log10 Ki among some compounds
targetSystem: human CB1 receptor (Homo sapiens)
protocol: Human CB1 receptor binding, [3H] CP-55,940 displacement on HEK cell membranes
Set-up: expressed in transfected cells; host or cells: HEK cells, doxycycline-induced; membrane preparation
recordedConditions: read-out: CB1 Ki
measurementLabel: log10 Ki (log10 of the value in nM)

{"compound": "CC(C)(C)C(NC(=O)c1nn(Cc2ccc(C#N)cc2)c2c(Cl)cccc12)C(=O)NCCNS(=O)(=O)C1CC1 (stereo not drawn)", "log10 Ki": -0.10}
{"compound": "CC(C)(C)[C@H](NC(=O)c1nn(Cc2ccc(F)cc2)c2ccccc12)C(=O)NCc1cnn(-c2ccccc2)n1", "log10 Ki": 1.18}
{"compound": "CN1CC(CNC(=O)[C@@H](NC(=O)c2nn(Cc3ccc(F)cc3)c3ccccc23)C(C)(C)C)CC1=O (stereo partly drawn)", "log10 Ki": 0.57}
{"compound": "CC(C)(C)[C@H](NC(=O)c1nn(Cc2ccc(F)cc2)c2ccccc12)C(=O)NCC(=O)Nc1ccccn1", "log10 Ki": 0.27}
{"compound": "CC(C)(C)[C@H](NC(=O)c1nn(Cc2ccc(C(F)(F)F)cc2)c2ccccc12)C(=O)NCCNS(=O)(=O)c1ccc(C#N)cc1", "log10 Ki": 1.89}
{"compound": "CCOC(=O)c1nc(CNC(=O)C(NC(=O)c2nn(Cc3ccc(C#N)cc3)c3ccccc23)C(C)(C)C)no1 (stereo not drawn)", "log10 Ki": 1.03}
{"compound": "CCOC(=O)c1nnc(CNC(=O)[C@@H](NC(=O)c2nn(Cc3ccc(C#N)cc3)c3ccccc23)C(C)(C)C)o1", "log10 Ki": 1.10}
{"compound": "CC(C)(C)[C@H](NC(=O)c1nn(Cc2ccc(F)cc2)c2ccccc12)C(=O)N1CCN(S(C)(=O)=O)CC1", "log10 Ki": 0.38}
{"compound": "CC(C)(C)[C@H](NC(=O)c1nn(Cc2ccc(F)cc2)c2ccccc12)C(=O)N1CC(CNS(=O)(=O)C2CC2)C1", "log10 Ki": -0.21}
{"compound": "CC(C)(C)[C@H](NC(=O)c1nn(Cc2ccc(F)cc2)c2ccccc12)C(=O)NCCS(=O)(=O)N1CCOCC1", "log10 Ki": 0.47}
{"compound": "CC(C)(C)[C@H](NC(=O)c1nn(Cc2ccc(F)cc2)c2ccccc12)C(=O)NCCN1CCCC1=O", "log10 Ki": 1.26}
{"compound": "CC(C)(C)[C@H](NC(=O)c1nn(Cc2ccc(F)cc2)c2ccccc12)C(=O)N1CCCC(C(=O)NC[C@H](O)CO)C1 (stereo partly drawn)", "log10 Ki": 1.84}
{"compound": "CC(C)(C)[C@H](NC(=O)c1nn(Cc2ccc(C#N)cc2)c2cc(F)ccc12)C(=O)NCc1nnc(C(=O)NCCO)o1", "log10 Ki": 2.44}
{"compound": "CC(C)(C)[C@H](NC(=O)c1nn(Cc2ccc(C#N)cc2F)c2c(F)c(F)ccc12)C(=O)NCc1nnc(C(N)=O)o1", "log10 Ki": 1.08}

* * *

targetSystem: human CB1 receptor (Homo sapiens, UniProt P21554)
Sequence (P21554 whole entry): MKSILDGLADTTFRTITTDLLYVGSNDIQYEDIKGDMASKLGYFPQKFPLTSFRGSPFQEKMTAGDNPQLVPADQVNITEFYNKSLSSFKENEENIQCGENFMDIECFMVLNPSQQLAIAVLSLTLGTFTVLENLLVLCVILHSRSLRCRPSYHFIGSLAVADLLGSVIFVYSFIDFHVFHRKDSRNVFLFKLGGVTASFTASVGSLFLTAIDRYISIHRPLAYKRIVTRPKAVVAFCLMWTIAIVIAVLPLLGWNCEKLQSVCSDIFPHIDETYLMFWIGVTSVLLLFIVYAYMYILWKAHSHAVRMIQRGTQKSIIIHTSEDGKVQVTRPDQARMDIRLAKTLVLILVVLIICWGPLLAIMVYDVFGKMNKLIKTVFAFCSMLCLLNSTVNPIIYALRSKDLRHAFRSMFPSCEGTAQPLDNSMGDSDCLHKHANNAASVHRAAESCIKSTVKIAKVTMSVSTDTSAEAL
protocol: Human CB1 receptor binding, [3H] CP-55,940 displacement on HEK cell membranes
Design: expressed in transfected cells; host or cells: HEK cells, doxycycline-induced; membrane preparation
recordedConditions: CB1 Ki
measurementLabel: Ki

{"molecule": "COC(=O)[C@@H](O)CNC(=O)[C@@H](NC(=O)c1nn(Cc2ccc(C#N)cc2)c2ccccc12)C(C)(C)C [Example 237]", "measurementLabel": "Ki", "readoutValue": "> 0.4 µM"}
{"molecule": "COc1cc(C#N)ccc1Cn1nc(C(=O)N[C@H](C(=O)NC(CO)CO)C(C)(C)C)c2ccccc21 [Example 391]", "measurementLabel": "Ki", "readoutValue": "> 0.4 µM"}
{"molecule": "CC(C)(C)[C@H](NC(=O)c1nn(Cc2ccc(C#N)cc2)c2ccc(Cl)cc12)C(=O)NCCS(N)(=O)=O [Example 444]", "measurementLabel": "Ki", "readoutValue": "> 0.4 µM"}

* * *

Parameter: pKi. Scope: all listed entries.
targetSystem: human CB1 receptor (Homo sapiens)
protocol: Human CB1 receptor binding, [3H] CP-55,940 displacement on HEK cell membranes
Design: expressed in transfected cells; host or cells: HEK cells, doxycycline-induced; membrane preparation
recordedConditions: CB1 Ki
Experimental: The Human CB1 receptor binding affinity and other biological activities of the compounds of this invention are determined by the following procedures. […] Protein concentration was determined using the Micro-BCA Protein Assay Kit (Pierce, Rockford, Ill.) using BSA as a standard. […] Binding experiments: 50 μl of test compound was incubated with 50 μl of [^3H] […] Nonspecific binding was determined by incubation with 50 μM WIN-55, 212-2 (Tocris, Ellisville, Mo.). […]
pKi: −log10 of the molar value.
measurementLabel: pKi

{"compound": "CC(C)(C)[C@H](NC(=O)c1nn(Cc2ccc(C#N)cc2)c2ccccc12)C(=O)NCC1CCC(=O)N1 (stereo partly drawn)", "readoutValue": "< 6.40"}
{"compound": "CC(C)(C)[C@H](NC(=O)c1nn(Cc2ccc(C#N)cc2)c2ccc(Cl)cc12)C(=O)NC(CO)CO", "readoutValue": "< 6.40"}
{"compound": "CC(C)(C)[C@H](NC(=O)c1nn(Cc2ccc(C#N)cc2)c2c(F)cccc12)C(=O)N[C@H]1CNC(=O)C1", "readoutValue": "< 6.40"}

* * *

Measured Ki values are reported for all entries that follow.
targetSystem: human CB1 receptor (Homo sapiens)
protocol: Human CB1 receptor binding, [3H] CP-55,940 displacement on HEK cell membranes
Set-up: expressed in transfected cells; host or cells: HEK cells, doxycycline-induced; membrane preparation
recordedConditions: CB1 Ki
Experimental: The Human CB1 receptor binding affinity and other biological activities of the compounds of this invention are determined by the following procedures. […] Protein concentration was determined using the Micro-BCA Protein Assay Kit (Pierce, Rockford, Ill.) using BSA as a standard. […] Binding experiments: 50 μl of test compound was incubated with 50 μl of [^3H] […] Nonspecific binding was determined by incubation with 50 μM WIN-55, 212-2 (Tocris, Ellisville, Mo.). […]

{"compound": "CC(C)(C)[C@H](NC(=O)c1nn(Cc2ccc(C#N)cc2)c2ccccc12)C(=O)N[C@H]1C[C@H](O)C1", "Ki": "11.7 nM"}
{"compound": "CC(C)(C)C(NC(=O)c1nn(Cc2ccc(F)cc2)c2ccccc12)C(=O)NC1(CO)CC1 (centres unmarked)", "Ki": "1.45 nM"}
{"compound": "CC(C)(C)[C@H](NC(=O)c1nn(Cc2ccc(F)cc2)c2ccc(Cl)cc12)C(=O)NCC(N)=O", "Ki": "18.2 nM"}
{"compound": "CC(C)(C)[C@H](NC(=O)c1nn(Cc2ccc(F)cc2)c2ccccc12)C(=O)NCC(=O)NC1CC1", "Ki": "0.34 nM"}
{"compound": "CC(C)(C)C(NC(=O)c1nn(Cc2ccc(F)cc2)c2ccc(F)cc12)C(=O)NCCCO (centres unmarked)", "Ki": "1.1 nM"}
{"compound": "CC(C)(C)C(NC(=O)c1nn(Cc2cccc(F)c2)c2ccccc12)C(N)=O (centres unmarked)", "Ki": "2.57 nM"}
{"compound": "CC(C)(C)C(NC(=O)c1nn(Cc2ccc(C#N)cc2F)c2ccccc12)C(=O)NCC(O)CO (centres unmarked) [Example 90]", "Ki": "27.4 nM"}
{"compound": "CC(C)(C)[C@H](NC(=O)c1nn(Cc2ccc(F)cc2)c2ccccc12)C(=O)Nc1cnoc1", "Ki": "2.3 nM"}
{"compound": "CC(C)(C)C(NC(=O)c1nn(Cc2ccc(C#N)cc2)c2c(Cl)cccc12)C(=O)NCCCO (centres unmarked)", "Ki": "4.8 nM"}
{"compound": "CC(C)(C)C(NC(=O)c1nn(Cc2ccc(C#N)cc2F)c2ccccc12)C(=O)NCCO (centres unmarked)", "Ki": "1.87 nM"}
{"compound": "CC(C)(C)C(NC(=O)c1nn(Cc2ccc(F)cc2)c2c(F)cccc12)C(=O)NC1CC1 (centres unmarked)", "Ki": "0.22 nM"}
{"compound": "CC(C)(C)C(NC(=O)c1nn(Cc2ccc(F)cc2)c2ccc(F)cc12)C(=O)NCCO (centres unmarked)", "Ki": "0.42 nM"}
{"compound": "CC(C)(C)[C@H](NC(=O)c1nn(Cc2ccc(C#N)cc2)c2ccc(Cl)cc12)C(=O)NCCO", "Ki": "170 nM"}
{"compound": "CC(C)(C)[C@H](NC(=O)c1nn(Cc2ccc(F)cc2)c2ccccc12)C(=O)NCC1CNC(=O)O1 (some centres unmarked)", "Ki": "2.91 nM"}
{"compound": "CC(C)(C)[C@H](NC(=O)c1nn(Cc2ccc(F)cc2)c2ccccc12)C(=O)NCc1nn[nH]n1", "Ki": "7.92 nM"}
{"compound": "COc1cc(C#N)ccc1Cn1nc(C(=O)N[C@H](C(=O)NCCS(C)(=O)=O)C(C)(C)C)c2ccccc21", "Ki": "> 400 nM"}
{"compound": "CC(C)(C)[C@H](NC(=O)c1nn(Cc2ccc(F)cc2)c2ccccc12)C(=O)N1CCC(F)CC1", "Ki": "3.74 nM"}
{"compound": "CC(C)(C)[C@H](NC(=O)c1nn(Cc2ccc(F)cc2)c2c(F)cc(Cl)cc12)C(=O)NCC(N)=O", "Ki": "16.4 nM"}
{"compound": "CC(C)(C)[C@H](NC(=O)c1nn(Cc2ccccc2F)c2ccccc12)C(N)=O", "Ki": "0.73 nM"}
{"compound": "CC(C)(C)[C@H](NC(=O)c1nn(Cc2ccc(C#N)cc2)c2ccccc12)C(=O)NC1CC1", "Ki": "3.85 nM"}
{"compound": "CC(C)(C)C(NC(=O)c1nn(Cc2ccc(F)cc2)c2c(Cl)cccc12)C(=O)NCC(N)=O (centres unmarked)", "Ki": "0.51 nM"}
{"compound": "CC(C)(C)[C@H](NC(=O)c1nn(Cc2ccc(F)cc2)c2ccccc12)C(N)=O", "Ki": "0.36 nM"}
{"compound": "CC(C)(C)[C@H](NC(=O)c1nn(Cc2ccc(F)cc2)c2ccccc12)C(=O)NCC#N", "Ki": "0.76 nM"}
{"compound": "CC(C)(C)[C@H](NC(=O)c1nn(Cc2ccc(C#N)cc2)c2c(F)cccc12)C(=O)NCCS(N)(=O)=O", "Ki": "21.4 nM"}
{"compound": "CC(C)(C)[C@H](NC(=O)c1nn(Cc2ccc(F)cc2)c2ccccc12)C(=O)N1C[C@@H](O)[C@@H](O)C1", "Ki": "1.03 nM"}
{"compound": "CC(C)(C)C(NC(=O)c1nn(Cc2ccc(C#N)cc2F)c2ccccc12)C(=O)NCCCO (centres unmarked)", "Ki": "14.3 nM"}
